The measurements presented in this section are drawn from patent US20240398812A1.

Target: human TRPML1 (Homo sapiens, UniProt Q9GZU1)
Sequence (Q9GZU1 whole entry L15A/L16A/L577A/L578A, form open): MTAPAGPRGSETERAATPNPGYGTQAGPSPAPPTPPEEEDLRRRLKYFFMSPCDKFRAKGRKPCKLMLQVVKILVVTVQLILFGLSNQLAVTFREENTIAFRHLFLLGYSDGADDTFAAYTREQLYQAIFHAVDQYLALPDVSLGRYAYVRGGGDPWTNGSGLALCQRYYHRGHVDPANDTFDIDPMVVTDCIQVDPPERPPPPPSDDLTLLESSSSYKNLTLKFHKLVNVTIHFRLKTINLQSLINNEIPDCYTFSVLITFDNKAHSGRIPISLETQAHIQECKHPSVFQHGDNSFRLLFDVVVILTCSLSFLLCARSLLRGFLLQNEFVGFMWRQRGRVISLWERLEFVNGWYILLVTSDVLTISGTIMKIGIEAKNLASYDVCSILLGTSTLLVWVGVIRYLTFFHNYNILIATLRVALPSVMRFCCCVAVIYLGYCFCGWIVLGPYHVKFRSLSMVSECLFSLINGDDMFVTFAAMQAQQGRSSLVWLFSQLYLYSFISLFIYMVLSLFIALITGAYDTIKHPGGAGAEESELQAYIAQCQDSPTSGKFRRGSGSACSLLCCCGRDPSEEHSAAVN
Assay: Fluorescent TRPML1 assay (Fluo4-AM calcium fluorescence, HEK-293 Trex cells)
Type: cell-based
Details: Table 3, compounds 101-177
quantity-name: EC50

Lookup: Given C[C@@H]1CN(c2cn(-c3cc(C#N)ccn3)c3ncnc(N4CCN(C(=O)CC(C)(C)C)C[C@@H]4C)c23)CCO1 [Compound 165] , respond with its EC50.
Found: < 100 nM

Lookup: Given CC(C)C(=O)N1C[C@H](C)N(c2ncnc3c2c(-c2ccccc2F)cn3-c2cc(C#N)ccn2)C[C@H]1C [Compound 139] , respond with its EC50.
Found: < 100 nM

Lookup: Given C[C@@H]1CN(c2ncnc3c2c(C2CC2)cn3-c2cc(C#N)ccn2)[C@@H](C)CN1C(=O)CC(C)(C)C [Compound 153] , respond with its EC50.
Found: < 100 nM

Lookup: Given Cc1nccnc1-c1cn(-c2cc(C#N)ccn2)c2ncnc(N3C[C@@H](C)N(C(=O)C(C)C)C[C@@H]3C)c12 [Compound 172] , respond with its EC50.
Found: 500 to 2000 nM

Lookup: Given CCN(CC)c1cn(-c2cccc(Cl)c2)c2ncnc(N3CCN(C(=O)C(C)C)C[C@@H]3C)c12 [Compound 147] , respond with its EC50.
Found: 500 to 2000 nM

Lookup: Given CC(C)C(=O)N1CCN(c2ncnc3c2c(-c2ccccc2F)cn3-c2cc(C#N)ccn2)[C@@H](C)C1 [Compound 102] , respond with its EC50.
Found: < 100 nM

Lookup: Given C[C@H]1CN(C(=O)CC(C)(C)C(F)(F)F)CCN1c1ncnc2c1c(C1CC1)cn2-c1cc(C#N)ccn1 [Compound 141] , respond with its EC50.
Found: < 100 nM

Lookup: Given CC(C)C(=O)N1CCN(c2ncnc3c2c(C2CCC2)cn3-c2cc(C#N)ccn2)[C@@H](C)C1 [Compound 150] , respond with its EC50.
Found: 500 to 2000 nM

Lookup: Given C[C@H]1CN(C(=O)C(C)(C)F)CCN1c1ncnc2c1c(-c1ccccc1F)cn2-c1cc(C#N)ccn1 [Compound 125] , respond with its EC50.
Found: < 100 nM

Lookup: Given C[C@H]1CN(C(=O)CC(C)(C)C(F)(F)F)CCN1c1ncnc2c1c(-c1ccccc1F)cn2-c1cc(C#N)ccn1 [Compound 140] , respond with its EC50.
Found: < 100 nM

Lookup: Given C[C@H]1CN(C(=O)C2CC2)CCN1c1ncnc2c1c(-c1ccccc1)cn2-c1cc(C#N)ccn1 [Compound 123] , respond with its EC50.
Found: 100 to 500 nM

Lookup: Given CC(C)C(=O)N1C[C@H](C)N(c2ncnc3c2c(-c2ccccc2F)cn3-c2cc(F)ccn2)C[C@H]1C [Compound 167] , respond with its EC50.
Found: < 100 nM

Lookup: Given C[C@H]1CN(C(=O)C(C)(C)C)CCN1c1ncnc2c1c(C1CC1)cn2-c1cc(C#N)ccn1 [Compound 104] , respond with its EC50.
Found: < 100 nM

Lookup: Given C[C@H]1CN(C(=O)C2(C)CC2)CCN1c1ncnc2c1c(-c1ccccn1)cn2-c1cc(C#N)ccn1 [Compound 127] , respond with its EC50.
Found: 500 to 2000 nM

Lookup: Given CC(C)C(=O)N1CCN(c2ncnc3c2c(-c2ccccc2)cn3-c2cc(C#N)ccn2)[C@@H](C)C1 [Compound 118] , respond with its EC50.
Found: < 100 nM

Lookup: Given Cc1nccnc1-c1cn(-c2cccc(Cl)c2)c2ncnc(N3C[C@@H](C)N(C(=O)CC(C)C)C[C@@H]3C)c12 [Compound 176] , respond with its EC50.
Found: 500 to 2000 nM

Lookup: Given CC(C)C(=O)N1CCN(c2ncnc3c2c(-c2ccccc2F)cn3-c2cc(C#N)n(C)n2)[C@@H](C)C1 [Compound 146] , respond with its EC50.
Found: 100 to 500 nM
